Data origin: the supplement of paper PMC10126150

# System: ATP;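 also: ATP exposure 15 min at 22 °C before imaging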
# Assay Protocol: switch fluorescence ratio, 500 uM ATP over buffer (Cy3 cluster intensity, sum of 5 cycles each) (fold (ratio)); higher = stronger signal-on switching upon ATP binding; sequences stand for … in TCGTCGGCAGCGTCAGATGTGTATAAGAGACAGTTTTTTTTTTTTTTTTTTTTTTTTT…TC
# Condition: aptamer strand: ATP DNA aptamer (quencher-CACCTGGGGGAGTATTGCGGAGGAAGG + anchor), 100 nM annealed; ATP concentration: 500 uM
Assay Endpoint: switch fluorescence ratio
Kindly provide the number alone.

Solved entries:
INSERT INTO measurements (sequence_string, test_target, assay_endpoint, reading) VALUES
  ('GTGGGATATT', 'ATP', 'switch fluorescence ratio', 0.981),
  ('GGGGTGTTGC', 'ATP', 'switch fluorescence ratio', 0.999),
  ('CAGAGATCTG', 'ATP', 'switch fluorescence ratio', 0.973);

Req: # return recorded switch fluorescence ratio for entry `AGGGTAATTG`
Resp: 0.998
